tested on: SW-620; assay: NCI tumour cell line growth inhibition, 48 h
Calls of active or inactive are those of the source. Cut-off read from the data, not from the text of the source: active = GI50 up to about 1.1 µM and inactive = higher.

[
  {
    "molecule": "O=C(Nc1ccc(Cl)cc1Cl)c1c/c(=N\\O)c2ccc(O)cc2o1",
    "GI50": "> 100 µM (inactive)"
  },
  {
    "molecule": "CC1OC(OC2C(CO)OC(O[C@H]3CC[C@@]4(C)C(=CC[C@H]5[C@@H]6C[C@@H]7O[C@]8(CC[C@@H](C)CN8)[C@@H](C)[C@@H]7[C@@]6(C)CC[C@@H]54)C3)C(O)C2O)C(O)C(O)C1O (some centres not stated)",
    "GI50": "> 100 µM (inactive)"
  },
  {
    "molecule": "Cc1cccc(C)c1NC(=O)/C(Cc1nc2ccc([N+](=O)[O-])cc2nc1O)=N\\NC(N)=O",
    "GI50": "52.5 µM (inactive)"
  },
  {
    "molecule": "O=C(CC(=O)Nc1ccccc1Cl)NNC(Sc1ccccc1)c1cc(/N=N/c2ccc(Br)cc2)ccc1O (configuration not stated)",
    "GI50": "0.69 µM (active)"
  },
  {
    "molecule": "O=C(CN1CCCCC1)Nc1ccc2sc3ccccc3c(=O)c2n1",
    "GI50": "5.25 µM (inactive)"
  },
  {
    "molecule": "CCOc1cc2c(cc1O)/C(=N\\N)C[C@@H]1[C@@H]2CC[C@]2(C)[C@@H](O)CC[C@@H]12",
    "GI50": "1.85 µM (inactive)"
  },
  {
    "molecule": "COc1ccc2nc3cc(Cl)ccc3c(SCC(=O)Nc3ccccc3-c3ccccc3NC(=O)CSc3c4ccc(Cl)cc4nc4ccc(OC)cc34)c2c1",
    "GI50": "> 100 µM (inactive)"
  },
  {
    "molecule": "O=C(CCC1OCCO1)Nc1cc(NCc2ccccc2)ccc1OCc1ccccc1",
    "GI50": "42.1 µM (inactive)"
  },
  {
    "molecule": "Cc1cc(O)c(C(O)c2ccccn2)cc1O (configuration not stated)",
    "GI50": "21.1 µM (inactive)"
  },
  {
    "molecule": "Cc1c(N)nc(C(CC(N)=O)NCC(N)C(N)=O)nc1C(=O)NC(C(=O)NC(C)C(O)C(C)C(=O)NC(C(=O)NCCc1nc(-c2nc(C(=O)NCCCNCCCCN)cs2)cs1)C(C)O)C(OC1OC(CO)C(O)C(O)C1OC1OC(CO)C(O)C(OC(N)=O)C1O)c1c[nH]cn1 (configuration not stated)",
    "GI50": "> 10 µM (inactive)"
  },
  {
    "molecule": "CCOC(=O)n1c2ccccc2c2c(O)c(OC)c3c(c21)C(=O)NC3=O",
    "GI50": "35.5 µM (inactive)"
  },
  {
    "molecule": "C1=CC=C2NCCSCC/N=C3/C=CC=CC=C3NCCSCC/N=C\\2C=C1",
    "GI50": "> 100 µM (inactive)"
  },
  {
    "molecule": "COC(=O)/C=C(\\S/C(=C(/c1ccccc1)n1cc(C(=O)OC)c(C(=O)OC)n1)c1ccccc1)C(=O)OC",
    "GI50": "2.37 µM (inactive)"
  },
  {
    "molecule": "CCOC(=O)c1[nH]c(CN(C)Cc2[nH]c(C(=O)OCC)c(C)c2C(=O)OCc2ccccc2)c(C(=O)OCc2ccccc2)c1C",
    "GI50": "12.7 µM (inactive)"
  },
  {
    "molecule": "COC(=O)/C(=N/NC(C)(C)C)C(C(=O)OC)C(=O)C(=O)Nc1nc2ccc([N+](=O)[O-])cc2s1 (configuration not stated)",
    "GI50": "> 100 µM (inactive)"
  },
  {
    "molecule": "O=c1cc(-c2ccccc2)oc2cc(OCCCOc3ccc4c(=O)cc(-c5ccccc5)oc4c3)ccc12",
    "GI50": "> 100 µM (inactive)"
  },
  {
    "molecule": "O=C1NC(=O)c2c1n(Cc1ccccc1)c(=O)n2Cc1ccccc1",
    "GI50": "> 100 µM (inactive)"
  },
  {
    "molecule": "CCCC/C(C)=N/NC(N)=S",
    "GI50": "> 100 µM (inactive)"
  },
  {
    "molecule": "Cn1cnc(N2CCCC2)c(C#N)c1=S",
    "GI50": "> 100 µM (inactive)"
  },
  {
    "molecule": "CC1=C(C(=O)OC(C)C)C(c2cccc([N+](=O)[O-])c2)C(C(=O)OC(CO[N+](=O)[O-])CO[N+](=O)[O-])=C(C)N1 (configuration not stated)",
    "GI50": "4.14 µM (inactive)"
  },
  {
    "molecule": "O=[N+]([O-])c1ccc(Cl)c(CNc2ncnc3c2ncn3C2CCCCO2)c1 (configuration not stated)",
    "GI50": "35 µM (inactive)"
  },
  {
    "molecule": "O=c1c(Nc2ccccc2)cn(CCOc2ccc(Cl)cc2)c(=O)n1CCOc1ccc(Cl)cc1",
    "GI50": "> 100 µM (inactive)"
  },
  {
    "molecule": "N#CC1=C(N)OC(c2cccc([N+](=O)[O-])c2)C1(C#N)C#N (configuration not stated)",
    "GI50": "> 10 µM (inactive)"
  },
  {
    "molecule": "CCCN(CCC)C(=O)Cc1c2n(c3ccccc13)Cc1ccccc1-2",
    "GI50": "> 100 µM (inactive)"
  },
  {
    "molecule": "COc1ccc(-c2c3ccccc3c(-c3ccc(OC)cc3)c3ccccc23)cc1",
    "GI50": "> 100 µM (inactive)"
  },
  {
    "molecule": "O=C(Nc1ccc(C(F)(F)F)cc1[N+](=O)[O-])C(=O)Nn1c(S)nc2ccccc2c1=O",
    "GI50": "> 100 µM (inactive)"
  },
  {
    "molecule": "CN(C)/C=N\\c1c(Br)cc(Br)c2nonc12",
    "GI50": "> 100 µM (inactive)"
  }
]
